# testedTarget: T1, mouse transferrin receptor (mTfR) fused to EGFP, on CHO cells (mouse, UniProt Q62351 1-763)
# T1 construct: whole, on cells; also called mouse TfR; CHO-mTfR-EGFP; not shown: EGFP
# T1 sequence (Q62351 whole entry, the tested form may be a part): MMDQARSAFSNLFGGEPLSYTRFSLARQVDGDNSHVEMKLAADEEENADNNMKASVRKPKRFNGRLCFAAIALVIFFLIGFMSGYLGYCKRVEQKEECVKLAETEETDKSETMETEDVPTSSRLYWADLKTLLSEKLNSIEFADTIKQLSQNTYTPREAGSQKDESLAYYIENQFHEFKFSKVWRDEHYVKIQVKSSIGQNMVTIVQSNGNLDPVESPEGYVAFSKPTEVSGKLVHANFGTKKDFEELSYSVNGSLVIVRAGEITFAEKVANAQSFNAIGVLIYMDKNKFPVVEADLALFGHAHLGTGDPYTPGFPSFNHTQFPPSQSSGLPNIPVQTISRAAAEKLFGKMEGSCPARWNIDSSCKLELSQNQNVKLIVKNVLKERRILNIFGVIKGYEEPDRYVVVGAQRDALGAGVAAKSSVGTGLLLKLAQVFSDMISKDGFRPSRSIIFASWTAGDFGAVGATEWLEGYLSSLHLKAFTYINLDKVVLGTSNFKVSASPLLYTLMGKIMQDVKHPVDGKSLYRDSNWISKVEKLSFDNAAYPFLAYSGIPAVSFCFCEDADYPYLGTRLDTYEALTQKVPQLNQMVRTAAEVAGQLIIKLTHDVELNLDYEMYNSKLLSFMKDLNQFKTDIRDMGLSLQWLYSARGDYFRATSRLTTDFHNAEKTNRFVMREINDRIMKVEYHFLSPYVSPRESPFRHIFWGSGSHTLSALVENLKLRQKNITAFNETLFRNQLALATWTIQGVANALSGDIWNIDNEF
# protocol: apparent Kd, flow cytometry, CHO cells
pKd for assorted binders
Bear in mind: pKd is minus log10 of a mol/L concentration; give just that figure.

Item: B8^V20 (VHH) VHH: EVQLVESGGGVVQPGGSLRLSCAASGEIFSINFMRWYRQAPGKQREWVAGFTRDGSHNYPDSAKGRFTISRDNAKNTVYLQIDSLKPEDTAVYYCYMLDTWGQGTQVTVSS | pKd: 8.19

Query VHH A (C5) (VHH, form with the C-terminal myc-His6 tag (x = 1), since the VHHs were detected with anti-6His or anti-cMyc; the same holds for m12 to m126) VHH: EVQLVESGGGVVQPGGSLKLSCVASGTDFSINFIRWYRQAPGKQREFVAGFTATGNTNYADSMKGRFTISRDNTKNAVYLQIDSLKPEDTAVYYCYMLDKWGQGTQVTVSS yields pKd of 7.30

Looking up B8^V16 (VHH) VHH: EVQLVESGGGVVQPGGSLRLSCAASGEIFSINFMRWYRQAPGKQREQVAGFTRDGSTNYPDSAKGRFTISRDNAKNTVYLQIDSLKPEDTAVYYCYMLDTWGQGTQVTVSS , I found its pKd recorded as 8.44

Recorded result, VHH A2 (C5^V2) (VHH) VHH: EVQLVESGGGVVQPGGSLKLSCVASGTAFSINFIRWYRQAPGKQREFVAGFTATGNTNYADSMKGRFTISRDNTKNAVYLQIDSLKPEDTAVYYCYMLDKWGQGTQVTVSS , pKd: 6.87
